# assay_target: recombinant human IL-17AA (Homo sapiens, UniProt Q16552)
# Sequence (Q16552 24-155): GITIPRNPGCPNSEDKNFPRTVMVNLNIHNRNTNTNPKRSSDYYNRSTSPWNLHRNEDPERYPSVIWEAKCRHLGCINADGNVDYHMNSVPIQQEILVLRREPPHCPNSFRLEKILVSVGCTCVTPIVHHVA
# assay_comment: IL-6 release from NHDF cells, IL-17AA plus TNF-α stimulation
# Assay type: cell-based
# test_parameters: NHDF cells, IL-17AA 30 pM plus TNF-α 6 pM, 24 hours, IL-6 by ELISA; read-out: IL17AA + TNF IC50 IL-6
pIC50: −log10 of the molar value.
readout_type: pIC50

compound=Cc1c(-c2ccc(NC(=O)[C@@H](NC(=O)c3ccnn3C)C3CCCCCC3)cc2)c(Cl)cc[n+]1[O-] readout_type=pIC50 test_result=8.15
compound=Cc1c(-c2ccc(NC(=O)[C@@H](NC(=O)c3ccnn3C)C(c3ccccc3)c3ccccc3)cc2)c(Cl)cc[n+]1[O-] readout_type=pIC50 test_result=7.70
compound=Cc1nocc1C(=O)N[C@H](C(=O)Nc1ccc(-c2c(Cl)cc[n+]([O-])c2C)c(F)c1)C1CCCCC1 readout_type=pIC50 test_result=8.05
compound="Cc1cc[n+]([O-])c(C)c1-c1ccc(NC(=O)C(NC(=O)c2conc2C)C2CCC(C(F)(F)F)CC2)cc1 (centres unmarked)" readout_type=pIC50 test_result=8.22
compound=COCc1nocc1C(=O)N[C@H](C(=O)Nc1ccc(-c2c(C)cc[n+]([O-])c2C)cc1)C1CCC(F)(F)CC1 readout_type=pIC50 test_result=7.06
compound=CCc1nocc1C(=O)N[C@H](C(=O)Nc1ccc(-c2c(C)cc[n+]([O-])c2C)cc1)[C@@H]1CC=C(F)CC1 readout_type=pIC50 test_result=7.66

(P) Cc1cc[n+]([O-])c(C)c1-c1ccc(NC(=O)[C@@H](NC(=O)c2ccnn2C)C2CCC(F)(F)CC2)cc1F
(Q) Cc1nocc1C(=O)N[C@H](C(=O)Nc1ccc(-c2c(Cl)cc[n+]([O-])c2C)cc1)C1CCC(F)(F)CC1
(R) Cc1c(-c2ccc(NC(=O)C(NC(=O)c3ccnn3C)C3CCC(C)CC3)cc2)c(Cl)cc[n+]1[O-] (centres unmarked)
(S) Cc1c(-c2ccc(NC(=O)[C@@H](NC(=O)c3ccc4n3CCN(C3COC3)C4)C3CCCCC3)cc2F)c(Cl)cc[n+]1[O-]
Asked: List by increasing pIC50. Please list the labels according to the requested order.
Given back: P, Q, S, R
(P: 7.08, Q: 7.51, S: 7.77, R: 8.40)

(I) Cc1c(-c2ccc(NC(=O)[C@@H](NC(=O)c3ccnn3C)C3CCCCC3)cc2F)cc(Cl)c[n+]1[O-]
(II) Cc1c(-c2ccc(NC(=O)[C@@H](NC(=O)c3ccnn3C)C3CCCCC3)cc2F)ccc[n+]1[O-]
Asked: # return whichever of I and II has the smaller pIC50 State the label of the item chosen.
Given back: II

(a) CCn1nccc1C(=O)NC(C(=O)Nc1ccc(-c2c(Cl)cc[n+]([O-])c2C)cc1)C1CC2CC2C1 (centres unmarked)
(b) Cc1c[n+]([O-])cc(C)c1-c1ccc(NC(=O)[C@@H](NC(=O)c2ccnn2C2CC2)C2CCCCCC2)cc1
Asked: # return whichever of a and b has the smaller pIC50 State the label of the item chosen.
Given back: b
(b: 7.34, a: 7.59)

---

# assay_target: recombinant human IL-17AA (Homo sapiens)
# assay_comment: IL-6 release from NHDF cells, IL-17AA plus TNF-α stimulation
# Format: cell-based
# test_parameters: NHDF cells, IL-17AA 30 pM + TNF-α 6 pM, 24 hours, IL-6 by ELISA; read-out: IL17AA + TNF IC50 IL-6
readout_type: IC50 (nM)

compound="Cc1cc[n+]([O-])c(C)c1-c1ccc(NC(=O)C(NC(=O)c2ccnn2C)C2CCCC(F)(F)C2)cc1 (stereo not drawn) [Example 147]" assay_target="recombinant human IL-17AA (Homo sapiens)" unit_abbreviation=nM test_result=193

(a) Cc1nocc1C(=O)N[C@H](C(=O)Nc1ccc(-c2cc(Cl)c[n+]([O-])c2C)cc1)C1CCC(F)(F)CC1 [Example 173]
(b) Cc1nocc1C(=O)NC(C(=O)Nc1ccc(-c2c(Cl)cc[n+]([O-])c2C)cc1)C1CC2CC2C1 (single isomer, unassigned) [Example 181]
Asked: // which entry has the larger IC50 value, a or b ? State the label of the item chosen.
Given back: a
(a: 1680 nM, b: 64 nM)

---

# assay_target: biotinylated human IL-17A / AF647-labeled human IL-17RA (Homo sapiens, UniProt Q16552)
# assay_comment: Human IL-17A×IL-17RA TR-FRET assay
# Assay type: binding
# test_parameters: TR-FRET, biotinylated human IL-17A 5 nM, AF647-labeled human IL-17RA 30 nM; read-out: IL17AA FRET/ IL17Rawt IC50
pIC50: −log10 of the molar value.
readout_type: pIC50

Solved cases below.
compound="Cc1c(-c2ccc(NC(=O)[C@@H](NC(=O)c3ccnn3C)C3CCCCC3)c(F)c2)c(Cl)cc[n+]1[O-] [Example 59]" test_result=7.31
compound="CCc1nocc1C(=O)N[C@H](C(=O)Nc1ccc(-c2c(C)cc[n+]([O-])c2C)cc1)C1CCC(F)(F)C1 (mixture of isomers) [Example 86]" test_result=6.92
compound="COCc1nocc1C(=O)NC(C(=O)Nc1ccc(-c2c(C)cc[n+]([O-])c2C)cc1)C1CCC(C(F)(F)F)CC1 (centres unmarked) [Example 25]" test_result=6.75
compound="CCc1nocc1C(=O)NC(C(=O)Nc1ccc(-c2c(Cl)cc[n+]([O-])c2C)cc1)C1CCC(C(F)(F)F)CC1 (centres unmarked) [Example 4]" test_result=7.59
compound="Cc1cc[n+]([O-])c(C)c1-c1ccc(NC(=O)[C@@H](NC(=O)c2ccnn2C)[C@H]2CCCc3ccccc32)cc1 [Example 1]" test_result=8.10

(I) Cc1cc[n+]([O-])c(C)c1-c1ccc(NC(=O)[C@@H](NC(=O)c2ccnn2C)C2CCC(F)(F)CC2)cc1 [Example 32]
(II) Cc1c(-c2ccc(NC(=O)C(NC(=O)c3ccnn3C)C3CCC(C(F)(F)F)CC3)cc2)c(Cl)cc[n+]1[O-] (centres unmarked) [Example 18]
(III) Cc1nocc1C(=O)N[C@H](C(=O)Nc1ccc(-c2c(C(F)(F)F)cc[n+]([O-])c2C)cc1)[C@H]1CCCC(F)(F)C1 [Example 9]
Asked: Ordering criterion: pIC50; begin with the maximum. Please list the labels according to the requested order.
Given back: II, III, I
(II: 7.60, III: 7.22, I: 6.54)

(a) Cc1cc[n+]([O-])c(C)c1-c1ccc(NC(=O)[C@@H](NC(=O)c2ccnn2C2CC2)C2CCCCCC2)cc1 [Example 42]
(b) Cc1c(-c2ccc(NC(=O)[C@@H](NC(=O)c3ccnn3C)C3CCCCC3)cc2F)cc(Cl)c[n+]1[O-] [Example 92]
(c) Cc1c(-c2ccc(NC(=O)[C@@H](NC(=O)c3ccc4n3CCN(C3COC3)C4)C3CCCCC3)cc2F)c(Cl)cc[n+]1[O-] [Example 133]
(d) Cc1c(-c2ccc(NC(=O)[C@@H](NC(=O)c3ccnn3C)C3CC=C(F)CC3)cc2)c(C(F)(F)F)cc[n+]1[O-] (some centres unmarked) [Example 65]
(e) Cc1nc(C(F)(F)F)c(C(=O)N[C@H](C(=O)Nc2ccc(-c3c(C(F)(F)F)cc[n+]([O-])c3C)cc2)C2CCCC2)s1 [Example 73]
Asked: List by increasing pIC50. Please list the labels according to the requested order.
Given back: e, b, c, d, a

(1) CCc1nocc1C(=O)N[C@H](C(=O)Nc1ccc(-c2c(C)cc[n+]([O-])c2C)cc1)[C@@H]1CC=C(F)CC1 [Example 28]
(2) Cc1c(-c2ccc(NC(=O)[C@@H](NC(=O)c3ccnn3C)C3CC=C(F)CC3)cc2)c(Cl)cc[n+]1[O-] (some centres unmarked) [Example 55]
Asked: # return whichever of 1 and 2 has the smaller pIC50 State the label of the item chosen.
Given back: 2
(2: 7.42, 1: 7.70)

---

# assay_target: biotinylated human IL-17A / AF647-labeled human IL-17RA (Homo sapiens)
# assay_comment: Human IL-17A×IL-17RA TR-FRET assay
# Type: binding
# test_parameters: TR-FRET, biotinylated human IL-17A 5 nM, AF647-labeled human IL-17RA 30 nM; read-out: IL17AA FRET/ IL17Rawt IC50
readout_type: IC50 (nM)

Solved cases below.
molecule="CCc1nocc1C(=O)N[C@H](C(=O)Nc1ccc(-c2c(Cl)cc[n+]([O-])c2C)cc1)[C@H]1CCCC(F)(F)C1 [Example 6]" readout_type=IC50 test_result=48
molecule="Cc1c(-c2ccc(NC(=O)[C@@H](NC(=O)c3ccc4n3CCN(C)C4)C3CCC(F)(F)CC3)cc2)c(Cl)cc[n+]1[O-] [Example 123]" readout_type=IC50 test_result=150
molecule="Cc1cc[n+]([O-])c(C)c1-c1ccc(NC(=O)C(NC(=O)c2ccnn2C)C2(C)CCCCC2)cc1 (stereo not shown) [Example 43]" readout_type=IC50 test_result=78900
molecule="Cc1cc[n+]([O-])c(C)c1-c1ccc(NC(=O)[C@@H](NC(=O)c2ccnn2C)C2CCC(F)(F)CC2)cc1F [Example 109]" readout_type=IC50 test_result=164
molecule="Cc1c(-c2ccc(NC(=O)[C@@H](NC(=O)c3ccnn3C(C)C)C3CCCCC3)cc2F)ccc[n+]1[O-] [Example 82]" readout_type=IC50 test_result=85

(A) CCc1nocc1C(=O)N[C@H](C(=O)Nc1ccc(-c2c(C(F)(F)F)cc[n+]([O-])c2C)cc1)[C@H]1CCCC(F)(F)C1 [Example 26]
(B) Cc1c(-c2ccc(NC(=O)[C@@H](NC(=O)c3ccc4n3CCN(C)C4)C3CCC(F)CC3)cc2)c(Cl)cc[n+]1[O-] (mixture of isomers) [Example 129]
Asked: // which entry has the larger IC50 value, A or B ? State the label of the item chosen.
Given back: B
